# Target system: human RNR (histidine tagged human M1 and human M2 proteins) (Homo sapiens, UniProt P23921)
# Sequence (P23921 1-792): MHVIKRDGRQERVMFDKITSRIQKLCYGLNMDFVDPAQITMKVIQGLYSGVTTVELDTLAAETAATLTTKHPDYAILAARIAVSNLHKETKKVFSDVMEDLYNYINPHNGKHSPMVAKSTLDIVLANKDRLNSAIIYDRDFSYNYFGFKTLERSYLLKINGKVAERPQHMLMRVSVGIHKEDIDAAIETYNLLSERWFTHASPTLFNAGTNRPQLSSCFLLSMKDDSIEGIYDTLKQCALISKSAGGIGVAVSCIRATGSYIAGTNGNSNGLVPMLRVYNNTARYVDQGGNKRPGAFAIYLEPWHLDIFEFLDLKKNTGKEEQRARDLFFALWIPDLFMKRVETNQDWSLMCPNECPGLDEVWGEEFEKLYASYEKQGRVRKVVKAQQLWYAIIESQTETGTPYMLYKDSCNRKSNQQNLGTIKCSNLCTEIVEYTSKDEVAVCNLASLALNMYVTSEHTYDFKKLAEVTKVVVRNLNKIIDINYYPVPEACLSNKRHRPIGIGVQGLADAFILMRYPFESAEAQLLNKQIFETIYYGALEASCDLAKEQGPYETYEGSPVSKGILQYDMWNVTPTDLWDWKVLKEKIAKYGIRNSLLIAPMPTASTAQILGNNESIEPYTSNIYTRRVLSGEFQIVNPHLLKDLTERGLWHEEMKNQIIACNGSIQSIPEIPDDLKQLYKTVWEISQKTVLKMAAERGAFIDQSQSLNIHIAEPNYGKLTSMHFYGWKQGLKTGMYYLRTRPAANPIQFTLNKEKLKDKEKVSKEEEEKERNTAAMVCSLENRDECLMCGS
pIC50: −log10 of the molar value.
pIC50 values for the compounds below.

| Compound | pIC50 |
| --- | --- |
| CC(=O)Nc1cc(Cl)ccc1S(=O)(=O)N[C@H](c1n[nH]c(=O)o1)[C@H](C)c1c(F)ccc(C)c1C | 6.36 |
| [2H]C([2H])([2H])C1(O)CCOc2c(S(=O)(=O)N[C@H](c3n[nH]c(=O)o3)[C@H](C)c3c(F)ccc(C)c3C)ccc(Cl)c21 (single isomer, unassigned) [Example 200B] | 7.10 |
| CNC(=O)c1cc(Br)cnc1S(=O)(=O)N[C@H](c1n[nH]c(=O)o1)[C@H](C)c1c(F)ccc(C)c1C | 6.60 |

###

Protein target, amino acids: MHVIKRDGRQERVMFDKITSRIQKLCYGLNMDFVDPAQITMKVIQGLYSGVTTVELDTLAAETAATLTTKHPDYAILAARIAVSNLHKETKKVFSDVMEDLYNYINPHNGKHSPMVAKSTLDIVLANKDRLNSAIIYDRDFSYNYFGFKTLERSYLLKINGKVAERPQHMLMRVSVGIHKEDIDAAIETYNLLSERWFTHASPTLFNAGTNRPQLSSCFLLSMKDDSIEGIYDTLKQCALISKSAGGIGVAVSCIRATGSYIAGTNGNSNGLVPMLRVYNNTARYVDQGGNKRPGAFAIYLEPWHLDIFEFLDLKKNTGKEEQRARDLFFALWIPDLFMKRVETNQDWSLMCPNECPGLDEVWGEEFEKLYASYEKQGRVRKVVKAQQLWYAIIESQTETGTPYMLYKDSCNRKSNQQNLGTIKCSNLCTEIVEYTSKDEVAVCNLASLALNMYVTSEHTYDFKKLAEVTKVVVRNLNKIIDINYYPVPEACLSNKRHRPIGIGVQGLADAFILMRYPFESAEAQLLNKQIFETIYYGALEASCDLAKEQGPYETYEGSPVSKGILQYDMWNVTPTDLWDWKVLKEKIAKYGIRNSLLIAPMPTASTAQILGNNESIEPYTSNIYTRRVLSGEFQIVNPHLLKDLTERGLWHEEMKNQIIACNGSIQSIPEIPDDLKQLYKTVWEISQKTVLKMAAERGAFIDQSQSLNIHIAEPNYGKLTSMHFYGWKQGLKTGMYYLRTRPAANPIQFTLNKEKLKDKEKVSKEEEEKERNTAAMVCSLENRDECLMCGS
pIC50: −log10 of the molar value.

| Compound | pIC50 |
| --- | --- |
| Cc1ccc(F)c([C@@H](C)[C@H](NS(=O)(=O)c2ccc(Cl)cc2C(=O)NCCO)c2n[nH]c(=O)o2)c1C | 6.57 |
| Cc1cccc([C@@H](C)[C@H](NS(=O)(=O)c2ccc(Cl)cc2C(N)=O)c2n[nH]c(=O)o2)c1C | 6.52 |
| C[C@H](c1cccc2c1Cc1ccccc1-2)[C@H](NS(=O)(=O)c1ccc(Br)cn1)c1n[nH]c(=O)o1 | 6.10 |
| CCN1CCOc2c(S(=O)(=O)N[C@H](c3n[nH]c(=O)o3)[C@H](C)c3c(F)ccc(C)c3C)ccc(Cl)c21 | 6.96 |
| Cc1ccc(F)c([C@@H](C)[C@H](NS(=O)(=O)c2ccc(Cl)c3c2OCCC3(O)C(F)(F)F)c2n[nH]c(=O)o2)c1C (single isomer, unassigned) [Example 220B] | 7.10 |
| Cc1ccc(F)c([C@@H](C)[C@H](NS(=O)(=O)c2ccc(Cl)c(C#N)n2)c2n[nH]c(=O)o2)c1C | 6.80 |

###

pIC50: −log10 of the molar value.
The reader will find pIC50 measurements below, all made with human RNR (histidine tagged human M1 and human M2 proteins) (Homo sapiens, UniProt P23921).

| Compound | Target system | pIC50 |
| --- | --- | --- |
| CNC(=O)c1cc(Cl)ccc1S(=O)(=O)N[C@H](c1n[nH]c(=O)o1)[C@H](C)c1c(F)ccc(C)c1C [Example 277] | human RNR (histidine tagged human M1 and human M2 proteins) (Homo sapiens, UniProt P23921) | 6.43 |
| Cc1ccc(F)c([C@@H](C)[C@H](NS(=O)(=O)c2ccc(Cl)c3c2OCCC3O)c2n[nH]c(=O)o2)c1C (single isomer, unassigned) [Example 235A] | human RNR (histidine tagged human M1 and human M2 proteins) (Homo sapiens, UniProt P23921) | 7.10 |
| Cc1c(Br)ccc(F)c1[C@@H](C)[C@H](NS(=O)(=O)c1ccc(F)c2c1OCCC2(C)O)c1n[nH]c(=O)o1 (single isomer, unassigned) [Example 227A] | human RNR (histidine tagged human M1 and human M2 proteins) (Homo sapiens, UniProt P23921) | 7.30 |
| COc1cc(Cl)ccc1S(=O)(=O)N[C@H](c1n[nH]c(=O)o1)[C@H](C)c1c(F)ccc(-c2cncnc2)c1C [Example 318] | human RNR (histidine tagged human M1 and human M2 proteins) (Homo sapiens, UniProt P23921) | 6.27 |
| COc1cc(S(=O)(=O)N[C@H](c2n[nH]c(=O)o2)[C@H](C)c2c(F)ccc(C)c2C)c(C(N)=O)cc1Cl [Example 259] | human RNR (histidine tagged human M1 and human M2 proteins) (Homo sapiens, UniProt P23921) | 7.00 |
| Cc1c(Cl)ccc(F)c1[C@@H](C)[C@H](NS(=O)(=O)c1ccc(Cl)c2c1OCCC2(C)N)c1n[nH]c(=O)o1 (single isomer, unassigned) [Example 330B] | human RNR (histidine tagged human M1 and human M2 proteins) (Homo sapiens, UniProt P23921) | 6.34 |
| Cc1ccc(F)c([C@@H](C)[C@H](NS(=O)(=O)c2ccc(C(F)(F)F)c3c2OCCC3O)c2n[nH]c(=O)o2)c1C (single isomer, unassigned) [Example 244B] | human RNR (histidine tagged human M1 and human M2 proteins) (Homo sapiens, UniProt P23921) | 6.66 |
| CC(O)c1nc(S(=O)(=O)N[C@H](c2n[nH]c(=O)o2)[C@H](C)c2cccc3c2CCC3)ccc1Cl (stereo partly shown) [Example 202] | human RNR (histidine tagged human M1 and human M2 proteins) (Homo sapiens, UniProt P23921) | 6.40 |
| [2H]C([2H])([2H])[C@H](c1c(F)ccc(C)c1C)[C@H](NS(=O)(=O)c1ccc(Cl)cc1C(N)=O)c1n[nH]c(=O)o1 [Example 43] | human RNR (histidine tagged human M1 and human M2 proteins) (Homo sapiens, UniProt P23921) | 7.10 |
| Cc1ccc(F)c([C@@H](C)[C@H](NS(=O)(=O)c2ccc(Cl)c(C(=O)N3C4CCC3COC4)n2)c2n[nH]c(=O)o2)c1C [Example 116] | human RNR (histidine tagged human M1 and human M2 proteins) (Homo sapiens, UniProt P23921) | 7.15 |
| COc1cc(Cl)ccc1S(=O)(=O)N[C@H](c1n[nH]c(=O)o1)C(C)c1c(F)c(F)cc(C)c1Br (stereo partly shown) [Example 89] | human RNR (histidine tagged human M1 and human M2 proteins) (Homo sapiens, UniProt P23921) | 6.38 |
| Cc1cccc2cccc([C@@H](C)[C@H](NS(=O)(=O)c3ccc(Cl)c4c3OCCC4O)c3n[nH]c(=O)o3)c12 (stereo partly shown) [Example 232] | human RNR (histidine tagged human M1 and human M2 proteins) (Homo sapiens, UniProt P23921) | 6.64 |
| Cc1ccc(F)c([C@@H](C)[C@H](NS(=O)(=O)c2ccc3c(c2)CCCO3)c2n[nH]c(=O)o2)c1C [Example 183] | human RNR (histidine tagged human M1 and human M2 proteins) (Homo sapiens, UniProt P23921) | 6.49 |
